Entries and their IC50
# System Tested: 5HT-Transporter (Homo sapiens)
# Construct: Human platelet membranes (Oceanix Biosciences Corporation, Hanover, Md., USA) were thawed; tissue Oceanix Biosciences Corporation; host or cells: human platelet membranes
# Sequence (P31645 whole entry): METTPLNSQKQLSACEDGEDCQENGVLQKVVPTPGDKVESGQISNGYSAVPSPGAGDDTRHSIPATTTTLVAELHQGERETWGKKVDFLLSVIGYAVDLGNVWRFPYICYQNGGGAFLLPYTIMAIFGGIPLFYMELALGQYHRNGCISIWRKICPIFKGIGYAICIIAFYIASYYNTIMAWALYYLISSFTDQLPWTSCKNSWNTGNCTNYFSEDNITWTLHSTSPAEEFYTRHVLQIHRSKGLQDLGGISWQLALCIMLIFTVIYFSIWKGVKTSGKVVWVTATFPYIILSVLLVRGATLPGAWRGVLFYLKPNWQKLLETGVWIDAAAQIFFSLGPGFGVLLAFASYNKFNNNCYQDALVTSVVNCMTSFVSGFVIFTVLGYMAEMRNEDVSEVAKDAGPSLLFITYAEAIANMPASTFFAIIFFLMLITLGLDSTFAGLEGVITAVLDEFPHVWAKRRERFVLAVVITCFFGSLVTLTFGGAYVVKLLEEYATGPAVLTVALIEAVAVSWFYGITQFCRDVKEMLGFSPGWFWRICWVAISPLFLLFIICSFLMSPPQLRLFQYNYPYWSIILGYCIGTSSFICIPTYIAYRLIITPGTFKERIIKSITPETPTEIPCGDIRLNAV
# Method Notes: Binding experiment for the 5HT-transporter ([3H]paroxetine, human platelet membranes)
# Test Settings: [3H]paroxetine 0.5 nM, read-out: h-5HTT pIC50 (converted)
// note: answer is a bare numeric in µM

Form field IC50 for item O=C(Cn1ccnc(NC2CCN(CCOc3ccccc3)CC2)c1=O)N1CCN(Cc2ccccc2)CC1 on 5HT-Transporter (Homo sapiens): 6.31

Form field IC50 for item O=c1c(NC2CCN(CCOc3ccccc3)CC2)nccn1CCc1ccccc1 on 5HT-Transporter (Homo sapiens): 6.31

Form field IC50 for item O=C(Cn1ccnc(NC2CCN(CCOc3ccccc3)CC2)c1=O)Nc1ccccc1 on 5HT-Transporter (Homo sapiens): 6.31

Form field IC50 for item O=c1c(NC2CCN(CCOc3ccccc3)CC2)nccn1CC1CCCCC1 on 5HT-Transporter (Homo sapiens): 1

Origin of the recorded values: patent US20090281099A1
